assay-summary: NaCl extraction from 0.4M NaCl water by ASM + Calix[4]Est in chloroform (Example 11)
assay-context: 60° C.; average molar extraction
Parameter: NaCl - 60° C. % ext (average). Scope: all listed entries.
Number first, unit second.

Below: 4 compounds and their reported NaCl - 60° C. % ext (average).
INSERT INTO measurements (compound, value) VALUES
  ('Nc1cc(C(F)(F)F)cc(C(F)(F)F)c1 [AnilineF*, 3,5-Di(trifluoromethyl)aniline, reference compound]', '0.0%'),
  ('CCCCCCCC(=O)Nc1cc(C(F)(F)F)cc(C(F)(F)F)c1', '6.3%'),
  ('CCCCCCCCCC(=O)Nc1cc(C(F)(F)F)cc(C(F)(F)F)c1', '6.5%'),
  ('OCc1cc(C(F)(F)F)cc(C(F)(F)F)c1 [ASM 3, [3,5-Bis(Trifluoromethyl)phenyl]methanol]', '0.0%');

Reported NaCl - 60° C. % ext (average) for CCCCCCCCCCCCCC(=O)Nc1cc(C(F)(F)F)cc(C(F)(F)F)c1 : what is it?
7.8%
